# assay.details: Pharmacokinetic parameters obtained in mice, 8 h oral exposure study
# Type: in vivo
# cond: mouse, serum; single oral dose 50 mg/kg, solution in 70% PEG400/30% water, fasted male Balb/C mice; read-out: Pharmacokinetic Parameters AUC0-8 h
attribute.measured: AUC(0-t) (µM·h)

compound_structure_string=Cl.Nc1cc(Oc2ccc(NC(=O)c3cccn(-c4ccc(F)cc4)c3=O)cc2F)ccn1 attribute_measured=AUC(0-t) recorded_value=33
compound_structure_string=CCOc1ccn(-c2ccc(F)cc2)c(=O)c1C(=O)Nc1ccc(Oc2ccnc(N)c2Cl)c(F)c1 attribute_measured=AUC(0-t) recorded_value=236

====

# test.system: CYP3A4 (Homo sapiens, UniProt P08684)
# Construct: host or cells: baculovirus-infected insect cells
# Sequence (P08684 whole entry): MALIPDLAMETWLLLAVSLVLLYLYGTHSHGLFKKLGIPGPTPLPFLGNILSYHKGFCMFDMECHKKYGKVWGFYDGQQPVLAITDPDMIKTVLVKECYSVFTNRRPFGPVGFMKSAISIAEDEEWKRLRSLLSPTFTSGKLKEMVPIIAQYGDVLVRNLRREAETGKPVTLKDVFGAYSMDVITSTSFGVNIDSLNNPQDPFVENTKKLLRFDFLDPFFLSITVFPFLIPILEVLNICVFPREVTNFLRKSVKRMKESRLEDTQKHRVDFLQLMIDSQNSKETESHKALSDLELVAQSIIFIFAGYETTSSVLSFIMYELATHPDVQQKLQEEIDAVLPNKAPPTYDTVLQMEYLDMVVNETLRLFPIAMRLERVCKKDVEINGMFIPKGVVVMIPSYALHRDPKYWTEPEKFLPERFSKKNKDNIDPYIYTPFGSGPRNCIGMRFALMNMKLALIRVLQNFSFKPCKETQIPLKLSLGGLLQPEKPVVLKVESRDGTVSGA
# assay.details: Cytochrome P450 assay (recombinant human CYP isoforms, fluorescence)
# Type: in vitro ADME
# cond: substrate resorufin benzyl ether (BzRes); read-out: CYP 3A4-BZR IC50
pIC50: −log10 of the molar value.
attribute.measured: pIC50

compound="Cl.Nc1cc(Oc2ccc(NC(=O)c3cccn(-c4ccc(F)cc4)c3=O)cc2F)ccn1 [Compound 2, hydrochloride salt]" recorded_value=5.19

Cited source: patent US7851489B2
